test system: OVCAR-5 ovarian; assay: NCI tumour cell line growth inhibition, 48 h
# maps each entry to its TGI

The cases that follow already have their TGI on record.
GET /values?readout=TGI&item= COC(=O)C(=O)C(C(=O)C=C(C)C)C(=O)C(=O)Nc1nc2ccc([N+](=O)[O-])cc2s1 (stereo not given)
> 100 µM

Another compound to look at: CC(Oc1ccccc1Cl)C(=O)NN1C(=O)CSC1c1ccc(Cl)cc1 (stereo not given)
48 µM

Another compound to look at: CC(=O)O/N=C(Cl)/C(Cl)=N/OC(C)=O
> 100 µM

Another compound to look at: O=C(O)CCC(NC(=O)c1ccc(CNc2nc3ccccc3nc2C(=O)O)cc1)C(=O)O (stereo not given)
> 100 µM

Now turn to the next compound.
GET /values?readout=TGI&item= Cc1cn2c(/C=C3/C(=O)Nc4ccc(F)cc43)c(C)nc2s1
> 50 µM

Hello, the source for this data is PubChem BioAssay (NCI), in case you need it.
